Tested on: HEK293FT dCK*-only
Test: relative growth in counter assay (no AraC = 100%, AraC + DMSO = 0%); higher = more growth rescue independent of IKZF1
Settings: compound concentration: 5 uM; AraC concentration: 0.3 uM; overnight pretreatment + 4 days AraC
In all, about 1,000 compounds were measured (“relative growth in counter assay (no AraC = 100%, AraC + DMSO = 0%)”: median about -1.1, highest 2% from about 20 on). The sample as a whole holds a higher share of the highest values than the screen did.
metric: relative growth in counter assay (%)
Number in %, nothing else.

Request: Any idea what its relative growth in counter assay is? The molecule is Cc1cc(NS(=O)(=O)c2ccc(NC(=O)c3cc4ccccc4o3)cc2)nc(C)n1
Response: -3.17

Request: Any idea what its relative growth in counter assay is? The molecule is CCCCc1cnc(Nc2cccc(C3CCN(C(=O)[C@@H]4CCCN4CCO)CC3)n2)s1
Response: 2.3

Request: Any idea what its relative growth in counter assay is? The molecule is Cc1cnc(Nc2cccc(C3CN(C(=O)C4CCCC4)CCO3)n2)s1 (stereo unspecified)
Response: -17

Request: Any idea what its relative growth in counter assay is? The molecule is Cc1cc(C)nc(NS(=O)(=O)c2ccc(NC(=O)CCN3C(=O)c4ccccc4C3=O)cc2)n1
Response: -7.05

Request: Any idea what its relative growth in counter assay is? The molecule is Cc1cnc(Nc2cccc(C3CN(C(=O)CCC4CCCCC4)CCO3)n2)s1 (stereo unspecified)
Response: -1.73

Request: Any idea what its relative growth in counter assay is? The molecule is Cc1cnc(Nc2cccc(C3CN(C(=O)C4CC4c4ccc(Cl)cc4)CCO3)n2)s1 (stereo unspecified)
Response: 28.7

Request: Any idea what its relative growth in counter assay is? The molecule is O=S(=O)(Cc1ccccc1)Nc1ccc(S(=O)(=O)Nc2ncccn2)cc1
Response: 5.8

Request: Any idea what its relative growth in counter assay is? The molecule is CCOc1ccccc1OCC(=O)Nc1ccc(S(=O)(=O)Nc2ncccn2)cc1
Response: 2.46

Request: Any idea what its relative growth in counter assay is? The molecule is O=C(COc1ccc(F)cc1)N1CCC(c2cccc(Nc3nccs3)n2)CC1
Response: 6.47

Request: Any idea what its relative growth in counter assay is? The molecule is O=C(CO)N1CCC(c2cccc(Nc3ncc(-c4ccccc4)s3)n2)CC1
Response: -21.4

Request: Any idea what its relative growth in counter assay is? The molecule is O=C1CCC(N2C(=O)c3cccc(N4CCC(C(=O)O)CC4)c3C2=O)C(=O)N1 (stereo unspecified)
Response: 3.86

Request: Any idea what its relative growth in counter assay is? The molecule is CC(C)(C)CC(=O)Nc1ccc(S(=O)(=O)Nc2ncccn2)cc1
Response: -0.2

Request: Any idea what its relative growth in counter assay is? The molecule is O=C(O)CCOCCOCCOCCOCCNc1ccc2c(c1)C(=O)N(C1CCC(=O)NC1=O)C2=O (stereo unspecified)
Response: 9.95

Request: Any idea what its relative growth in counter assay is? The molecule is Cc1cnc(Nc2cccc(C3CN(C(=O)C45CC6CC(CC(C6)C4)C5)CCO3)n2)s1 (stereo unspecified)
Response: -1.75

Request: Any idea what its relative growth in counter assay is? The molecule is Cc1csc(Nc2cccc(CC3CCN(CC(=O)N(C)C)CC3)n2)n1
Response: 7.9

Request: Any idea what its relative growth in counter assay is? The molecule is O=C(CN1C(=O)c2ccccc2C1=O)Nc1ccc(S(=O)(=O)Nc2ncccn2)cc1
Response: -1.34
